- MEASUREMENT_TARGET: T1, PDZD7_3, Q9H5P4
- T1 sequence (Q9H5P4 857-944, limits assumed, looked up): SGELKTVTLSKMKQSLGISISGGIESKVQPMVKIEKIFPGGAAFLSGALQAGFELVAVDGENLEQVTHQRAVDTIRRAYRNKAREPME
- EXPERIMENTAL_PROTOCOL: holdup assay
- Parameters: key: below the threshold = too weak to quantify, mostly under pKd 3.1 to 4
- RECORDED_CONDITIONS: plain residues with an end cap or a label only (N-terminal biotin on a linker: ado-ado)
MEASUREMENT_NAME: pKd

The following binders have reported results that may help.
BINDER	pKd
DAAHHDESNC [FMNL3, Q8IVF7]	below the threshold
NSTHNLKDYV [CLDN20, P56880]	below the threshold
MQILSKPEFI [NPSR1, Q6W5P4]	below the threshold
RDYTQSSSSL [GRM5, P41594]	below the threshold
KEKASTETEC [TRPM1, Q7Z4N2]	below the threshold

The binder identified as DLLGGGSDSI [TNRC6B, Q9UPQ9] registered its pKd at below the threshold

The binder identified as SAGADSETHC [SLCO1B1, Q9Y6L6] registered its pKd at below the threshold

The binder identified as RGKNRRQSIF [CDK18, Q07002] registered its pKd at below the threshold

The binder identified as GSQSQVETEA [FKBP4, Q02790] registered its pKd at below the threshold
